All values here come from PubChem BioAssay (NCI).

System: UO-31 renal
Method Notes: NCI-60 one-dose screen, 48 h
Protocol Conditions: 10 µM unless noted
About 83,000 compounds went through this panel and 20% of them were active in at least one assay; those are over-represented in the sample as a whole. Calls of active or inactive are those of the source. How the source made its calls: active means growth percent below 10; inactive means the rest.
Possible outcomes: label 1 = active, label 0 = inactive

{"columns": ["Smiles Text", "Discrete Label"],
 "data": [
  ["Cc1ccc(N=C=C(c2ccccc2)c2ccccc2)cc1", "label 0"],
  ["O[C@H]1[C@H]2c3cc4c(cc3CN3CCC(=C[C@@H]1O)[C@H]23)OCO4", "label 0"],
  ["Nc1nc(N)c2c(ccc3c2ccn3Cc2cccc([N+](=O)[O-])c2)n1", "label 1"],
  ["N#CSCc1ccc(CSC#N)c(Cl)c1", "label 0"],
  ["COc1cc(NS(C)(=O)=O)ccc1Nc1c2ccccc2nc2ccccc12", "label 0"],
  ["Cc1ccc(C(=Nc2ccccc2)N=P(c2ccccc2)(c2ccccc2)c2ccccc2)cc1", "label 1"]
]}

====

Test system: M14 melanoma
Method Notes: NCI-60 one-dose screen, 48 h (100 = growth as untreated, 0 = no growth, -100 = all killed)
Protocol Conditions: 10 µM unless noted
The panel holds about 83,000 compounds, 20% with a hit somewhere; the sample as a whole holds those more often.
Assay Metric: growth (%)

{"columns": ["Molecule", "Assay Metric", "Unit Text", "Val"],
 "data": [
  ["O=C1c2ccccc2C(=O)c2sc(Nc3cccc(Cl)c3)nc21", "growth", "%", -89.1],
  ["CN(C)CCOc1ccc2c(c1)C(=O)/C(=C\\c1ncc([N+](=O)[O-])n1C)C2", "growth", "%", -67.2],
  ["CN(C)c1ccc(/C=N/N=C(\\C#N)[S][Sn]([Cl])([c]2ccccc2)[c]2ccccc2)cc1", "growth", "%", 4.46],
  ["CCC1OC(OC)C=CC1=O (stereo unspecified)", "growth", "%", 104],
  ["N#CC1C(=O)SC2c3ccccc3C(=O)c3ccccc3C12 (stereo unspecified)", "growth", "%", 109],
  ["N#CSCC(=O)c1ccc(Cl)cc1", "growth", "%", 2.91]
]}

====

Tested on: RPMI-8226 leukemia
Method Notes: NCI-60 one-dose screen, 48 h
Protocol Conditions: 10 µM unless noted
Compounds without any hit were thinned out: in the full panel of roughly 83,000, 20% have a hit. Activity calls are given as the source filed them. How the source made its calls: active means growth percent below 10; inactive means the rest.
Classes used: yes (1) (active), no (0) (inactive)

{"columns": ["Molecule", "Discrete Label"],
 "data": [
  ["O=Nc1ccccc1N=O", "no (0)"],
  ["CC(=O)ON=C1C=CC(=C(C#N)c2ccccc2)C=C1", "no (0)"],
  ["CCOC(=O)/C(=C\\c1ccc(-c2ccccc2)cc1)C(C)=O", "no (0)"],
  ["O=C(Nc1ccccc1)c1cc(Cl)ccc1O", "no (0)"],
  ["C[n+]1c(/C=C/c2ccc([N+](=O)[O-])cc2)ccc2ccccc21", "no (0)"],
  ["CC(C)(C)c1ccc(O)c(C2CCCCC2)c1", "no (0)"],
  ["S=C(NCCNC(=S)[S][Sn]([c]1ccccc1)([c]1ccccc1)[c]1ccccc1)[S][Sn]([c]1ccccc1)([c]1ccccc1)[c]1ccccc1", "yes (1)"],
  ["COc1cc(NS(C)(=O)=O)ccc1Nc1c2ccccc2nc2ccccc12", "no (0)"],
  ["Cc1ccnc(NC(c2ccccc2)c2ccc3cccnc3c2O)c1 (centres undefined)", "no (0)"]
]}
